Tested on: HeLa Kyoto
assay_name: melting temperature (median over replicates), in situ; higher = more thermally stable
condition_context: cell cycle stage: G1/S
What melting temperature was measured for each of the following?
Number in °C, nothing else.

Lab note: measured melting temperature of MSGWADERGGEGDGRIYVGNLPTDVREKDLEDLFYKYGRIREIELKNRHGLVPFAFVRFEDPRDAEDAIYGRNGYDYGQCRLRVEFPRTYGGRGGWPRGGRNGPPTRRSDFRVLVSGLPPSGSWQDLKDHMREAGDVCYADVQKDGVGMVEYLRKEDMEYALRKLDDTKFRSHEGETSYIRVYPERSTSYGYSRSRSGSRGRDSPYQSRGSPHYFSPFRPY [SRSF9] was 50

Lab note: measured melting temperature of MAAIPPDSWQPPNVYLETSMGIIVLELYWKHAPKTCKNFAELARRGYYNGTKFHRIIKDFMIQGGDPTGTGRGGASIYGKQFEDELHPDLKFTGAGILAMANAGPDTNGSQFFVTLAPTQWLDGKHTIFGRVCQGIGMVNRVGMVETNSQDRPVDDVKIIKAYPSG [PPIL1] was 49.1

Lab note: measured melting temperature of MLSESSSFLKGVMLGSIFCALITMLGHIRIGHGNRMHHHEHHHLQAPNKEDILKISEDERMELSKSFRVYCIILVKPKDVSLWAAVKETWTKHCDKAEFFSSENVKVFESINMDTNDMWLMMRKAYKYAFDKYRDQYNWFFLARPTTFAIIENLKYFLLKKDPSQPFYLGHTIKSGDLEYVGMEGGIVLSVESMKRLNSLLNIPEKCPEQGGMIWKISEDKQLAVCLKYAGVFAENAEDADGKDVFNTKSVGLSIKEAMTYHPNQVVEGCCSDMAVTFNGLTPNQMHVMMYGVYRLRAFGHIFNDALVFLPPNGSDND [C1GALT1C1] was 53.9

Lab note: measured melting temperature of MALQGISVVELSGLAPGPFCAMVLADFGARVVRVDRPGSRYDVSRLGRGKRSLVLDLKQPRGAAVLRRLCKRSDVLLEPFRRGVMEKLQLGPEILQRENPRLIYARLSGFGQSGSFCRLAGHDINYLALSGVLSKIGRSGENPYAPLNLLADFAGGGLMCALGIIMALFDRTRTGKGQVIDANMVEGTAYLSSFLWKTQKLSLWEAPRGQNMLDGGAPFYTTYRTADGEFMAVGAIEPQFYELLIKGLGLKSDELPNQMSMDDWPEMKKKFADVFAEKTKAEWCQIFDGTDACVTPVLTFEEVVHHDHNKERGSFITSEEQDVSPRPAPLLLNTPAIPSFKRDPFIGEHTEEILEEFGFSREEIYQLNSDKIIESNKVKASL [AMACR] was 52.1

Lab note: measured melting temperature of MPSKKKKYNARFPPARIKKIMQTDEEIGKVAAAVPVIISRALELFLESLLKKACQVTQSRNAKTMTTSHLKQCIELEQQFDFLKDLVASVPDMQGDGEDNHMDGDKGARRGRKPGSGGRKNGGMGTKSKDKKLSGTDSEQEDESEDTDTDGEEETSQPPPQASHPSAHFQSPPTPFLPFASTLPLPPAPPGPSAPDEEDEEDYDS [DRAP1] was 56.9

Lab note: measured melting temperature of MLLSIGMLMLSATQVYTILTVQLFAFLNLLPVEADILAYNFENASQTFDDLPARFGYRLPAEGLKGFLINSKPENACEPIVPPPVKDNSSGTFIVLIRRLDCNFDIKVLNAQRAGYKAAIVHNVDSDDLISMGSNDIEVLKKIDIPSVFIGESSANSLKDEFTYEKGGHLILVPEFSLPLEYYLIPFLIIVGICLILIVIFMITKFVQDRHRARRNRLRKDQLKKLPVHKFKKGDEYDVCAICLDEYEDGDKLRILPCSHAYHCKCVDPWLTKTKKTCPVCKQKVVPSQGDSDSDTDSSQEENEVTEHTPLLRPLASVSAQSFGALSESRSHQNMTESSDYEEDDNEDTDSSDAENEINEHDVVVQLQPNGERDYNIANTV [RNF13] was 57.4

* * *

Tested on: HeLa Kyoto
assay_name: thermal stability score vs G1/S (z-score of summed log2 fold changes over temperatures); higher = more thermally stable than in G1/S
condition_context: cell cycle stage: mitosis
What thermal stability score was measured for each of the following?
Lab note: jot down the number only; don't add units.

Lab note: measured thermal stability score of MRHLPYFCRGQVVRGFGRGSKQLGIPTANFPEQVVDNLPADISTGIYYGWASVGSGDVHKMVVSIGWNPYYKNTKKSMETHIMHTFKEDFYGEILNVAIVGYLRPEKNFDSLESLISAIQGDIEEAKKRLELPEHLKIKEDNFFQVSKSKIMNGH [RFK] was -0.44

Lab note: measured thermal stability score of MGEPQGSMRILVTGGSGLVGKAIQKVVADGAGLPGEDWVFVSSKDADLTDTAQTRALFEKVQPTHVIHLAAMVGGLFRNIKYNLDFWRKNVHMNDNVLHSAFEVGARKVVSCLSTCIFPDKTTYPIDETMIHNGPPHNSNFGYSYAKRMIDVQNRAYFQQYGCTFTAVIPTNVFGPHDNFNIEDGHVLPGLIHKVHLAKSSGSALTVWGTGNPRRQFIYSLDLAQLFIWVLREYNEVEPIILSVGEEDEVSIKEAAEAVVEAMDFHGEVTFDTTKSDGQFKKTASNSKLRTYLPDFRFTPFKQAVKETCAWFTDNYEQARK [TSTA3] was -2.17

* * *

What solubility change mitosis (log2) was measured for each of the following?
Tested on: HeLa Kyoto
assay_name: solubility change mitosis vs G1/S (difference of NP-40 vs SDS log2 ratios) (log2 ratio difference); higher = more soluble in mitosis
Lab note: jot down the number only; don't add units.

Lab note: measured solubility change mitosis (log2) of MAAAAAAAVAGVGRGGGGAEPRQERSRARGWAGVERSEGRRMEPGEELEEEGSPGGREDGFTAEHLAAEAMAADMDPWLVFDARTTPATELDAWLAKYPPSQVTRYGDPGSPNSEPVGWIAVYGQGYSPNSGDVQGLQAAWEALQTSGRPITPGTLRQLAITHHVLSGKWLMHLAPGFKLDHAWAGIARAVVEGQLQVAKVSPRAKEGGRQVICVYTDDFTDRLGVLEADSAIRAAGIKCLLTYKPDVYTYLGIYRANRWHLCPTLYESRFQLGGSARGSRVLDRANNVELT [C11ORF68] was -0.0653

Lab note: measured solubility change mitosis (log2) of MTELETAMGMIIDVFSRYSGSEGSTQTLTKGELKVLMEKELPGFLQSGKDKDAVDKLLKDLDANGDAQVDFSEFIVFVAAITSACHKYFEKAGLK [S100P] was 0.32

Lab note: measured solubility change mitosis (log2) of MALLCYNRGCGQRFDPETNSDDACTYHPGVPVFHDALKGWSCCKRRTTDFSDFLSIVGCTKGRHNSEKPPEPVKPEVKTTEKKELCELKPKFQEHIIQAPKPVEAIKRPSPDEPMTNLELKISASLKQALDKLKLSSGNEENKKEEDNDEIKIGTSCKNGGCSKTYQGLESLEEVCVYHSGVPIFHEGMKYWSCCRRKTSDFNTFLAQEGCTKGKHMWTKKDAGKKVVPCRHDWHQTGGEVTISVYAKNSLPELSRVEANSTLLNVHIVFEGEKEFDQNVKLWGVIDVKRSYVTMTATKIEITMRKAEPMQWASLELPAAKKQEKQKDATTD [CHORDC1] was -0.122

Lab note: measured solubility change mitosis (log2) of MSDRKAVIKNADMSEDMQQDAVDCATQAMEKYNIEKDIAAYIKKEFDKKYNPTWHCIVGRNFGSYVTHETKHFIYFYLGQVAILLFKSG [DYNLL2] was 0.249

Lab note: measured solubility change mitosis (log2) of MRLGPRTAALGLLLLCAAAAGAGKAEELHYPLGERRSDYDREALLGVQEDVDEYVKLGHEEQQKRLQAIIKKIDLDSDGFLTESELSSWIQMSFKHYAMQEAKQQFVEYDKNSDDTVTWDEYNIQMYDRVIDFDENTALDDAEEESFRKLHLKDKKRFEKANQDSGPGLSLEEFIAFEHPEEVDYMTEFVIQEALEEHDKNGDGFVSLEEFLGDYRWDPTANEDPEWILVEKDRFVNDYDKDNDGRLDPQELLPWVVPNNQGIAQEEALHLIDEMDLNGDKKLSEEEILENPDLFLTSEATDYGRQLHDDYFYHDEL [RCN2] was 0.0798

Lab note: measured solubility change mitosis (log2) of MAKKTYDLLFKLLLIGDSGVGKTCVLFRFSDDAFNTTFISTIGIDFKIKTVELQGKKIKLQIWDTAGQERFHTITTSYYRGAMGIMLVYDITNGKSFENISKWLRNIDEHANEDVERMLLGNKCDMDDKRVVPKGKGEQIAREHGIRFFETSAKANINIEKAFLTLAEDILRKTPVKEPNSENVDISSGGGVTGWKSKCC [RAB10] was -0.146

* * *

Test system: HeLa Kyoto
assay_name: melting temperature (median over replicates), in situ; higher = more thermally stable
condition_context: cell cycle stage: mitosis
What melting temperature was measured for each of the following?
Number in °C, nothing else.

Lab note: measured melting temperature of MSGLRVYSTSVTGSREIKSQQSEVTRILDGKRIQYQLVDISQDNALRDEMRALAGNPKATPPQIVNGDQYCGDYELFVEAVEQNTLQEFLKLA [SH3BGRL3] was 52.6

Lab note: measured melting temperature of MAARRGALIVLEGVDRAGKSTQSRKLVEALCAAGHRAELLRFPERSTEIGKLLSSYLQKKSDVEDHSVHLLFSANRWEQVPLIKEKLSQGVTLVVDRYAFSGVAFTGAKENFSLDWCKQPDVGLPKPDLVLFLQLQLADAAKRGAFGHERYENGAFQERALRCFHQLMKDTTLNWKMVDASKSIEAVHEDIRVLSEDAIRTATEKPLGELWK [DTYMK] was 54.4

Lab note: measured melting temperature of MMWQKYAGSRRSMPLGARILFHGVFYAGGFAIVYYLIQKFHSRALYYKLAVEQLQSHPEAQEALGPPLNIHYLKLIDRENFVDIVDAKLKIPVSGSKSEGLLYVHSSRGGPFQRWHLDEVFLELKDGQQIPVFKLSGENGDEVKKE [COA1] was 55.7

Lab note: measured melting temperature of ARHGAP35 was 49.4
